System Under Test: Acetylcholinesterase (Torpedo californica)
Sequence (P04058 whole entry): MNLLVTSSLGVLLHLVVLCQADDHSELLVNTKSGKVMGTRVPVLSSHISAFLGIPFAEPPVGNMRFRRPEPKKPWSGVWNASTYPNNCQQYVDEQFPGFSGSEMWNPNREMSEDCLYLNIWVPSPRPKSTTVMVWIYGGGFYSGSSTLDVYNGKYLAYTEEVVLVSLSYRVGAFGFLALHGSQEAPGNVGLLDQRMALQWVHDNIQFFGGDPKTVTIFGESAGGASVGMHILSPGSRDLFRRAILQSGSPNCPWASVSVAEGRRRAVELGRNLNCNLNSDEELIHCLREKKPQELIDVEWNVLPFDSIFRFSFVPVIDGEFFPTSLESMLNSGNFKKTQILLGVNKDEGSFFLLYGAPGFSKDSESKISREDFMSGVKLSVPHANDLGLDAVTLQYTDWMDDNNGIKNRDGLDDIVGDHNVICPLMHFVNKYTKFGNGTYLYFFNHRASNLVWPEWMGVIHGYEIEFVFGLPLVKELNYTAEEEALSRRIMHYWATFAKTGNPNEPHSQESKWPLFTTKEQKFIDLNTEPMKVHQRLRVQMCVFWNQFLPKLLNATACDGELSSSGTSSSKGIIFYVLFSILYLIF
pIC50: −log10 of the molar value.

- Molecule: "CC[C@H](C)C1=N[C@H]2CC=C3C[C@H]4C(=O)C[C@]5(C)[C@@H]([C@H](C)N(C)C)[C@H](O)C[C@@]5(C)[C@@H]4CC[C@H]3[C@]2(C)CN1"
  pIC50: 6.35
- Molecule: "CC(C)C1=N[C@H]2CC=C3C[C@H]4C(=O)C[C@]5(C)[C@@H]([C@H](C)N(C)C)[C@H](OC(=O)C(C)(C)C)C[C@@]5(C)[C@@H]4CC[C@H]3[C@]2(C)CO1"
  pIC50: 6.14
- Molecule: "CC[C@H](C)C1=N[C@H]2CC=C3C[C@H]4C(=O)C[C@]5(C)[C@@H]([C@H](C)N(C)C)[C@H](O)C[C@@]5(C)[C@@H]4CC[C@H]3[C@]2(C)CO1"
  pIC50: 6.63
- Molecule: "CN[C@@H](C)[C@H]1[C@H](O)C[C@@]2(C)[C@@H]3CC[C@@H]4C(=CC[C@@H]5N=C(C(C)C)OC[C@]54C)C[C@H]3C(=O)C[C@]12C"
  pIC50: 6.31
- Molecule: "CC(C)C1=N[C@H]2CC=C3CC4C(=O)C[C@]5(C)[C@@H]([C@H](C)N(C)C)[C@H](O)C[C@@]5(C)[C@@H]4CC[C@H]3[C@]2(C)CO1 (some centres undefined)"
  pIC50: 6.41
- Molecule: "CC1=N[C@H]2CC=C3C[C@H]4C(=O)C[C@]5(C)[C@@H]([C@H](C)N(C)C)[C@H](O)C[C@@]5(C)[C@@H]4CC[C@H]3[C@]2(C)CO1"
  pIC50: 5.55
- Molecule: "CC[C@H](C)C1=N[C@H]2CC[C@]34C[C@]35C(=O)C[C@]3(C)[C@@H]([C@H](C)N(C)C)[C@H](O)C[C@@]3(C)[C@@H]5CC[C@H]4[C@]2(C)CN1"
  pIC50: 8.70
- Molecule: "CC(C)C1=N[C@H]2CC[C@]34C[C@]35C(=O)C[C@]3(C)[C@@H]([C@H](C)N(C)C)[C@H](O)C[C@@]3(C)[C@@H]5CC[C@H]4[C@]2(C)CN1"
  pIC50: 8.70
- Molecule: "C[C@@H]([C@H]1[C@H](O)C[C@@]2(C)[C@@H]3CC[C@@H]4C(=CC[C@@H]5N=C(C(C)(C)C)OC[C@]54C)C[C@H]3C(=O)C[C@]12C)N(C)C"
  pIC50: 6.43
